Data origin, for the record: paper PMC7479006

assayMethodText: Pharmacokinetics of flumatinib, M1 and M3 in plasma after a single oral 400 mg dose of flumatinib mesylate tablets, fasting vs high-fat diet (LC-MS/MS, non-compartmental)
cond: human, plasma, po, 400 mg, AUC0–t, Fasting (N = 11), mean ± SD, single oral 400 mg
endpointName: AUC(0-t) (ng·h/mL)
# value in ng·h/mL; strip the unit string

Q. Recorded AUC(0-t) of Cc1ncc(NC(=O)c2ccc(CN3CCN(C)CC3)c(C(F)(F)F)c2)cc1Nc1nccc(-c2cccnc2)n1 , please.
A. 832

====

assayMethodText: Pharmacokinetics of flumatinib, M1 and M3 in plasma after a single oral 400 mg dose of flumatinib mesylate tablets, fasting vs high-fat diet (LC-MS/MS, non-compartmental)
cond: human, plasma, po, 400 mg, MRT, High-fat diet (N = 12), mean ± SD, single oral 400 mg
endpointName: MRT (h)
# value in h; strip the unit string

Q. Recorded MRT of Cc1ncc(NC(=O)c2ccc(CN3CCN(C)CC3)c(C(F)(F)F)c2)cc1Nc1nccc(-c2cccnc2)n1 , please.
A. 19.2
